test: small-molecule microarray binders of probe aCHRDL2, primary screen, biochemical, biotinylated probe, 635/667 nm fluorescence (AID 1100); settings: higher = more signal
Everything with composite z-score lower than 0.1 is false (0); everything else, including exactly 0.1, is true (1).

Query block: Check this compound for composite z-score at or above 0.1: CCCC[C@@H]1C[C@H]1[C@@H](NC(=O)c1ccccc1)c1ccc(Cl)cc1
Result block: true (1)

Query block: Then COC(=O)[C@@]1(Cc2ccc(OC)cc2)[C@H]2c3cc(C(=O)N4CCCC4)n(CCc4cc5ccccc5[nH]4)c3C[C@H]2CN1C(=O)c1ccccc1 ?
Result block: true (1)

Query block: Next: CCOC(=O)C[C@H]1[C@H](OC(=O)c2ccccc2-c2ccccc2)[C@@H](NC(=O)c2ccc3ccccc3n2)c2cc(OCCCO)ccc2N1C(=O)c1ccc2ccccc2n1
Result block: false (0)

Query block: And the next one, COCC(=C=CC[C@H](O)c1ccc(OCCO)cc1)C[C@H](O)COCc1ccccc1 ?
Result block: false (0)

Query block: What about this compound? CC(C)NC(=O)[C@@]1(C)c2ccccc2C(=O)N(C(C)C)[C@H]1c1ccc(CO)cc1
Result block: true (1)

Query block: What about this compound? O=C(N1CCCCC1)[C@@]1(Cc2ccccc2)COC(c2ccc(OCCCO)cc2)=N1
Result block: true (1)

Query block: Field entry: CN1C(=O)[C@@]2(CCS(=O)(=O)c3ccccc3)N=C(c3ccc(OCCCO)cc3)O[C@H]2c2ccccc21
Result block: true (1)

Query block: Check O=C1NCC(=O)N2[C@@H]1C[C@@H](C(=O)O)[C@H]2c1ccc(O)cc1 too.
Result block: true (1)

* * *

molecular target: Fibroblast growth factor 2 (Homo sapiens); test: FGF2 binders on small-molecule microarrays, primary screen, biochemical, small-molecule microarray, 635/667 nm fluorescence (AID 1133); conditions: small-molecule microarray binding, FGF2, fluorescence 635/667; higher = more signal
REPORTED_METRIC: composite z-score
Field format: numeric only.

Query block: Look up composite z-score: CC(C)(C)OC(=O)CC[C@]1(C(=O)NCCN2CCOCC2)N=C(c2ccc(OCCCO)cc2)O[C@H]1c1ccccc1
Result block: -0.397

Query block: What about CO[C@H]1O[C@H](CO)[C@@H](OC(=O)Nc2ccc(C(F)(F)F)cc2)[C@H](OC(=O)Nc2ccc3c(c2)OCO3)[C@H]1OC(=O)Nc1ccc2c(c1)OCO2 ?
Result block: 0.395

Query block: // next record CC=CC(O)C1C=CC2C(=O)N(C)C(=O)C2N1Nc1ccc([N+](=O)[O-])cc1[N+](=O)[O-] (stereo not given)
Result block: -0.582

Query block: Further, for COc1ccc(C(O)C2C=CC3C(=O)N(Cc4ccccc4)C(=O)C3N2n2cnnc2)c2ccccc12 (stereo not given) ?
Result block: -1.54

Query block: Quick one: C=CCC(OC(C)=O)[C@@H]1[C@@H](N(Cc2cc3ccccc3o2)C(=O)Cc2ccc(F)cc2)c2cc(OCCCO)ccc2N1C(=O)c1ccc2ccccc2n1 (stereo not given in full)
Result block: -0.0144

Query block: Then what about the molecule COc1ccc(C(O)C2C=CC3C(=O)N(c4ccccc4)C(=O)C3N2Nc2ccccc2)cc1OCc1ccccc1 (stereo not given) ?
Result block: -0.132

Query block: Input NC(=O)N1C(=O)C2C(C1=O)C1C=C(CCCO)C2C(c2cccs2)N1Cc1cc2c(cc1Br)OCO2 (stereo not given)
Result block: -0.681

Query block: # iterate: CO[C@H]1O[C@H](CO)[C@@H](OC(=O)Nc2ccc(Oc3ccccc3)cc2)[C@H](OC(=O)Nc2ccccc2-c2ccccc2)[C@@H]1OC(=O)Nc1ccccc1-c1ccccc1
Result block: 0.295

Query block: Consider next the molecule C=CCC(OC(C)=O)[C@@H]1[C@@H](N(Cc2cc3ccccc3o2)C(=O)c2ccc(C)cc2)c2cc(OCCCO)ccc2N1C(=O)Cc1ccc2ccccc2c1 (stereo not given in full) in the same way.
Result block: -0.421

Query block: Next molecule: Cc1ccc(S[C@]2(C(=O)NC(C)C)CC(=O)N(Cc3ccccc3C(F)(F)F)[C@@H]2c2ccc(CO)cc2I)cc1
Result block: -0.848

Query block: Another molecule to look at: COc1ccccc1CN1C(=O)c2ccccc2[C@@H](C(=O)NC(C)C)[C@@H]1c1ccc(CO)cc1
Result block: 1.32

Query block: CC(C)(C)OC(=O)CC[C@]1(C(=O)N2CCOCC2)N=C(c2ccc(OCCCO)cc2)O[C@H]1c1ccccc1 ?
Result block: 0.858

Query block: Same lookup for C=CCN1C(=O)[C@]2(CC=C)N=C(c3ccc(OCCCO)cc3)O[C@@H]2c2ccccc21 , please.
Result block: 1.56

Query block: Similarly, CC(C)(C)N1CC=CC23O[C@@H]4C=CCOC(=O)[C@@H]4[C@H]2C(=O)N(CCCO)[C@@H]3C1=O (stereo not given in full) ?
Result block: -1.28

Query block: Can you check O=C(NC1CC1)[C@@H]1c2ccccc2C(=O)N(Cc2ccccc2)[C@H]1c1ccc(CO)cc1 next?
Result block: 0.483

* * *

Would you mind telling me the reported composite z-score of each entry?
test: binders of probe aFGF10 on microarray, primary screen, stem cell growth factor project, biochemical, small-molecule microarray, fluorescence 635/667 (AID 1071); conditions: higher = more signal;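 also: score merges 667 nm spot intensity and signal to noise from triplicate slides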
Form field (numeric): enter value without unit.

Query block: Item under review: Cc1ccc(S[C@]2(C(=O)NCCN3CCOCC3)CC(=O)N(Cc3ccccc3C(F)(F)F)[C@@H]2c2ccc(CO)cc2I)cc1 . Reported composite z-score?
Result block: -0.36

Query block: Likewise for C=CCN1C(=O)[C@@]2(O[C@@H](CCO)[C@H]([Si](C)(C)c3ccc(OC)cc3)[C@H]2C)c2cc(N3C(=O)c4ccccc4Oc4ccccc43)ccc21 ?
Result block: 0.907

Query block: Now this one: CCOC(=CC(=O)OC)CC(O)c1cccc(Cl)c1 (stereo not given)
Result block: -0.157

Query block: Thanks! And Cc1ccc(S[C@]2(C(=O)NCC(F)(F)F)CC(=O)N(Cc3ccccc3)[C@@H]2c2ccc(CO)cc2)cc1 ?
Result block: -0.453

Query block: For C=C(CCCC)C(=O)CC[C@@H](OC(=O)c1cccnc1)c1ccccc1OCCO then?
Result block: 0.0032

Query block: Can you check COc1ccc(NC(=O)O[C@H]2[C@H](OC(=O)Nc3ccc4c(c3)OCO4)[C@@H](OC(=O)Nc3ccc4c(c3)OCO4)[C@@H](OC)O[C@@H]2CO)cc1 next?
Result block: 0.639

Query block: Let us now turn to O=C1OC[C@@H](c2ccccc2)N2CC(/C=C/c3ccccc3)=CC12 (stereo not given in full)
Result block: -0.77

Query block: Same question for C#CCNC(=O)[C@H](Cc1ccccc1)NC(=O)[C@@H](N=[N+]=[N-])C(C)C please.
Result block: 0.334

Query block: Can you handle O=C1c2ccccc2[C@](Cc2ccccc2I)(C(=O)NCc2ccccc2)[C@H](c2ccc(CO)cc2)N1C1CCCCC1 next?
Result block: 0.753

Query block: Now the compound COc1cc2c(cc1OC)CN(C(=O)[C@H]1[C@@H]3C(=O)O[C@@H](c4ccccc4)[C@@H](c4ccccc4)N3[C@@H](c3ccc(OCCO)cc3)[C@]13C(=O)Nc1ccc(C#CC4(O)CCCCCC4)cc13)CC2
Result block: 0.326

Query block: Consider next the compound COC(=O)C1(Cc2ccccc2)C=C2C(=C(c3ccccc3)C(=O)C2C)CN1 (stereo not given) in the same way.
Result block: 1.21

Query block: How about CCOC(=O)C[C@H]1[C@H](OC(=O)Cc2ccc3c(c2)OCO3)[C@@H](NC(=O)Cc2ccc(OC)cc2)c2cc(OCCCO)ccc2N1C(=O)c1ccccc1 ?
Result block: 0.494

Query block: Next compound up: COc1ccc([Si](C)(C)[C@H]2[C@H](CCn3cc([C@H](O)c4ccccc4)nn3)O[C@@]3(C(=O)N(Cc4ccc(N5CCOC5=O)cc4)c4ccccc43)[C@@H]2C)cc1
Result block: -0.111

Query block: And what about the compound O=C1O[C@@H](c2ccccc2)[C@@H](c2ccccc2)N2[C@@H](c3ccccc3OCCO)[C@]3(C(=O)Nc4ccc(C#CC5=CCCCC5)cc43)[C@@H](C(=O)NC[C@H](O)c3ccccc3)[C@H]12 ?
Result block: 0.648

Query block: How about this compound: COc1c(C)cc(-c2cc3c(c(Cc4ccccc4)n2)[Si](C(C)C)(C(C)C)OC3)cc1C
Result block: -0.108

* * *

Consider the following molecules; for each one, report its z-score.
assay: FRG1 promoter luciferase signal modulators, primary screen, FRG1 inhibition for FSHD, cell-based, C2C12 myotubes, firefly/Renilla luciferase, luminescence (AID 1084); details: higher = more signal, called active from +8 up or from −8 down
Reply: number alone, nothing else.

Query block: What does the record list as z-score for COCCCNC(=O)[C@@H]1c2ccccc2C(=O)N(Cc2ccccc2C(F)(F)F)[C@H]1c1ccc(CO)cc1 ?
Result block: 0.421

Query block: What would you report for CO[C@H]1O[C@H](CO)[C@@H](OC(=O)c2ccc(Br)cc2)[C@@H]2OC(=O)[C@@H](Cc3ccc4ccccc4c3)C/C=C/C[C@H](Cc3ccc4ccccc4c3)C(=O)O[C@@H]12 ?
Result block: -1.14

Query block: What do you get for COc1ccc([Si](C)(C)[C@@H]2[C@@H](CCO)O[C@]3(C(=O)N(Cc4cccc(N5C(=O)c6cccc7cccc5c67)c4)c4ccccc43)[C@H]2C)cc1 ?
Result block: -0.34

Query block: Next molecule: COc1c(C)cc(-c2cc3c(c(Cc4ccccc4)n2)[Si](C(C)C)(C(C)C)OC3)cc1C
Result block: 0.184

Query block: Now consider COc1ccc(C(O)C2C=CC3C(=O)N(C)C(=O)C3N2N2CCCCC2)cc1 (centres undefined) .
Result block: 1.51

Query block: Request: C=CCN1C(=O)[C@@]2(CCC(=O)OC(C)(C)C)N=C(c3ccc(OCCCO)cc3)O[C@H]2c2ccccc21
Result block: -2.47

Query block: Do the same for C=CCNC(=O)[C@@H]1[C@H]2C(=O)O[C@H](c3ccccc3)[C@H](c3ccccc3)N2[C@H](c2ccc(OCCO)cc2)[C@@]12C(=O)N(C(=O)OCCOC)c1ccc(C#CC3=CCCCC3)cc12 please
Result block: 0.223

Query block: Please give the result for CCOc1cc(C(O)C2C=CC3C(=O)N(C4CCCCC4)C(=O)C3N2Nc2ccc(OC)cc2)ccc1O (centres undefined) too.
Result block: 1.79

Query block: And for CC(=O)n1cc(C(O)C2C=CC3C(=O)N(c4ccccc4)C(=O)C3N2Nc2ccccc2)c2ccccc21 (centres undefined) ?
Result block: 0.621

Query block: Continue with O=C1NCC(=O)N2[C@@H]1C[C@@H](C(=O)O)[C@H]2c1ccc(O)cc1
Result block: 4.94

Query block: Note, next up: COc1ccc([Si](C)(C)[C@@H]2[C@@H](CCn3cc([C@H](O)c4ccccc4)nn3)O[C@]3(C(=O)N(Cc4ccc(N5CCOC5=O)cc4)c4ccccc43)[C@H]2C)cc1
Result block: 0.216

Query block: Please give the result for COCCCNC(=O)[C@]1(Cc2ccccc2CN=[N+]=[N-])N=C(c2ccc(OCCCO)cc2)O[C@@H]1c1ccccc1 too.
Result block: -3.73

Query block: Param item: COCCOC(=O)N1C(=O)[C@@]2(c3cc(C#CC4(O)CCCCCC4)ccc31)[C@H](c1ccccc1OCCO)N1[C@H](c3ccccc3)[C@H](c3ccccc3)OC(=O)[C@H]1[C@@H]2C(N)=O
Result block: -1.17

Query block: Also C=CCC(OC(C)=O)[C@@H]1[C@@H](N(Cc2cc3ccccc3o2)C(=O)Cc2ccc(F)cc2)c2cc(OCCCO)ccc2N1C(=O)c1ccc2ccccc2n1 (some centres undefined) , if possible.
Result block: -0.591
